These measurements were taken from PubChem BioAssay AID588600.

- Target under test: Sentrin-specific protease 7 (Homo sapiens) (UniProt Q9BQF6)
- Sequence (Q9BQF6 706-1050 limits assumed): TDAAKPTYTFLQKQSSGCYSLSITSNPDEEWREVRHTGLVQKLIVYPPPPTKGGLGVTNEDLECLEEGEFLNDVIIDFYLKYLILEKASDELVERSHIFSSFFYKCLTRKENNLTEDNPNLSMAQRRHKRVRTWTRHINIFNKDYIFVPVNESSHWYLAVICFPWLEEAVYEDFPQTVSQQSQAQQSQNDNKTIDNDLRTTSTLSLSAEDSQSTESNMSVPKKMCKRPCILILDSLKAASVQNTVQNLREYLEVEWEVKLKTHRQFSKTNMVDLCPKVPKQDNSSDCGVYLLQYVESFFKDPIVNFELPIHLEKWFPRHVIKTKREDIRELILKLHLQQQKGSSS
- Procedure details: SENP7 protease inhibitors, SAR follow-up, biochemical, luminescence, set 2 (AID 588600)
- Condition info: recombinant SENP7, Z-RLRGG-aminoluciferin, 40 min
# maps each entry to its IC50

>  <Record smiles>
COc1ccccc1OCc1nc(-c2ccccc2Cl)no1

>  <Test value>
2.08 µM

$$$$

Query: Name the recorded IC50 of the item CN(C)c1ccc(/C=C/c2noc(-c3ccccc3O)n2)cc1 in your answer.
Response: 1.65 µM
